Values were extracted from paper PMC4336329.

Kindly state hERG current change (%, negative = inhibition) at 10uM for each of the entries shown.
Target Under Test: human ether-à-go-go-related gene (hERG) potassium channel (human, UniProt Q12809);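 further: peak tail current of the secondary pulse compared with the same well before compound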
Sequence (Q12809 whole entry, looked up): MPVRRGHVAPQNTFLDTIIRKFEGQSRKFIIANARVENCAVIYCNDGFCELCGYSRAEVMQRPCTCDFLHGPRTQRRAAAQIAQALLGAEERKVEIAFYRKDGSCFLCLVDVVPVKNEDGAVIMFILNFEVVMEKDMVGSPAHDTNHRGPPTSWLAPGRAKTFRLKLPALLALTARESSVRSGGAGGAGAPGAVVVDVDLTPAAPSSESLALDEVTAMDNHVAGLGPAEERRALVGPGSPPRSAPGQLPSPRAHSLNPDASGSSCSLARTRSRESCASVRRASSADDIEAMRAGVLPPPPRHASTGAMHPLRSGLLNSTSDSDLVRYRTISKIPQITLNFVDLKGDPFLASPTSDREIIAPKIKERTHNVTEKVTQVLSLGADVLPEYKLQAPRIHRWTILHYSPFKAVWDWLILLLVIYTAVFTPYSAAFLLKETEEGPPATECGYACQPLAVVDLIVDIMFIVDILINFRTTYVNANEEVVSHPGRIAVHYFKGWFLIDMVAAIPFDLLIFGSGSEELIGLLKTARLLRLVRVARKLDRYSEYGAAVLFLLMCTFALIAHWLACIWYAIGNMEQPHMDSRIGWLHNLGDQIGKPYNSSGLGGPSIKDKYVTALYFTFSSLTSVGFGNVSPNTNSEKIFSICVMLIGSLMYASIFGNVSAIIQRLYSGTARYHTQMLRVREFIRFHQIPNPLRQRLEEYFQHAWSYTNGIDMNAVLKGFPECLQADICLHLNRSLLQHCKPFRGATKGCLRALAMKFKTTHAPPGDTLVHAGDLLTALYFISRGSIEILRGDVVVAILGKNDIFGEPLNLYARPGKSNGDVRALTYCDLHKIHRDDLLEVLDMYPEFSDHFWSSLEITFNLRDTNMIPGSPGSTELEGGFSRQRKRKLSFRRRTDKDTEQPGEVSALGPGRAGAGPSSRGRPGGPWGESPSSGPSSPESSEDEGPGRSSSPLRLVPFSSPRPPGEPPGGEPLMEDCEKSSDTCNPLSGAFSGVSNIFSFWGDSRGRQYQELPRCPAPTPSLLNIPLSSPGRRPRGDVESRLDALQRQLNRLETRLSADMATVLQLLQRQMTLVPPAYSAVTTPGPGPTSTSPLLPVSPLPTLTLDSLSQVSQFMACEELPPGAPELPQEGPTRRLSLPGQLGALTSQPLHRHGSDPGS
Assay: primary screen, population patch clamp on CHO cells stably expressing hERG; higher = less effect of the substance
About 14,000 (4.5%) of roughly 310,000 compounds showed an effect of 50% or more. Effects have a minus sign here. Shown is part of a subset that was picked to be rich in strong results.
Give just the number in %; leave the unit off.

**Q:** Value wanted: hERG current change (%, negative = inhibition) at 10uM (human ether-à-go-go-related gene (hERG) potassium channel (human, UniProt Q12809)) of entry COc1ccccc1Oc1ccc2c(c1)C(=O)N(c1ccccc1)C2=O
**A:** -3.59

**Q:** Value wanted: hERG current change (%, negative = inhibition) at 10uM (human ether-à-go-go-related gene (hERG) potassium channel (human, UniProt Q12809)) of entry CC(C)Oc1ccc(CNC(=O)C2CCCN(S(=O)(=O)N3CCOCC3)C2)cc1 (stereo not drawn)
**A:** -20.8

**Q:** Value wanted: hERG current change (%, negative = inhibition) at 10uM (human ether-à-go-go-related gene (hERG) potassium channel (human, UniProt Q12809)) of entry COc1ccc(Cn2c(=O)n(Cc3ccco3)c(=N)c3c4c(sc32)COC(C)(C)C4)cc1
**A:** -15.9

**Q:** Value wanted: hERG current change (%, negative = inhibition) at 10uM (human ether-à-go-go-related gene (hERG) potassium channel (human, UniProt Q12809)) of entry Cc1nc(Nc2nc3ccccc3o2)nc(C)c1C
**A:** 10.3

**Q:** Value wanted: hERG current change (%, negative = inhibition) at 10uM (human ether-à-go-go-related gene (hERG) potassium channel (human, UniProt Q12809)) of entry Cc1cc(-c2ccc(Cl)cc2)n2nc(C)cc2n1
**A:** 4.45

**Q:** Value wanted: hERG current change (%, negative = inhibition) at 10uM (human ether-à-go-go-related gene (hERG) potassium channel (human, UniProt Q12809)) of entry O=C(CSc1nc2ccc([N+](=O)[O-])cc2[nH]1)c1ccc(Cl)cc1
**A:** 12.1

**Q:** Value wanted: hERG current change (%, negative = inhibition) at 10uM (human ether-à-go-go-related gene (hERG) potassium channel (human, UniProt Q12809)) of entry O=C(Oc1coc(CSc2ncccn2)cc1=O)c1cccc([N+](=O)[O-])c1
**A:** -81.3

**Q:** Value wanted: hERG current change (%, negative = inhibition) at 10uM (human ether-à-go-go-related gene (hERG) potassium channel (human, UniProt Q12809)) of entry Cc1ccc(C)c(OC2=NS(=O)(=O)c3ccccc32)c1
**A:** 23.2

**Q:** Value wanted: hERG current change (%, negative = inhibition) at 10uM (human ether-à-go-go-related gene (hERG) potassium channel (human, UniProt Q12809)) of entry COC(=O)c1ccc(N)cc1O
**A:** 22

**Q:** Value wanted: hERG current change (%, negative = inhibition) at 10uM (human ether-à-go-go-related gene (hERG) potassium channel (human, UniProt Q12809)) of entry CCOc1ccc(NC2=NCC(=O)N2Cc2cccs2)cc1.Cl
**A:** -1.9

**Q:** Value wanted: hERG current change (%, negative = inhibition) at 10uM (human ether-à-go-go-related gene (hERG) potassium channel (human, UniProt Q12809)) of entry O=C(CSc1cccc[n+]1[O-])c1cc2ccccc2o1
**A:** -4.46

**Q:** Value wanted: hERG current change (%, negative = inhibition) at 10uM (human ether-à-go-go-related gene (hERG) potassium channel (human, UniProt Q12809)) of entry Cc1ccc(SCC2=NN(c3nc(C)cc(C)n3)C(=O)C2)cc1
**A:** -16

**Q:** Value wanted: hERG current change (%, negative = inhibition) at 10uM (human ether-à-go-go-related gene (hERG) potassium channel (human, UniProt Q12809)) of entry COc1ccc(NC(=O)n2ncc3cc(Cl)ccc32)cc1OC
**A:** 21.3

**Q:** Value wanted: hERG current change (%, negative = inhibition) at 10uM (human ether-à-go-go-related gene (hERG) potassium channel (human, UniProt Q12809)) of entry COC(=O)c1ccccc1NC(=O)c1cnn2cccnc12
**A:** 13

**Q:** Value wanted: hERG current change (%, negative = inhibition) at 10uM (human ether-à-go-go-related gene (hERG) potassium channel (human, UniProt Q12809)) of entry O=C(C1CC1)N1N=C(c2ccc(Cl)cc2)CC1(O)C(F)(F)F (stereo not drawn)
**A:** -0.113

**Q:** Value wanted: hERG current change (%, negative = inhibition) at 10uM (human ether-à-go-go-related gene (hERG) potassium channel (human, UniProt Q12809)) of entry Cc1ccc(C)c(NC(=O)C2CCCN2C(=O)OC(C)(C)C)c1 (stereo not drawn)
**A:** 1.04

**Q:** Value wanted: hERG current change (%, negative = inhibition) at 10uM (human ether-à-go-go-related gene (hERG) potassium channel (human, UniProt Q12809)) of entry c1coc(Cn2c(-c3ccco3)nc3ccccc32)c1
**A:** -10

**Q:** Value wanted: hERG current change (%, negative = inhibition) at 10uM (human ether-à-go-go-related gene (hERG) potassium channel (human, UniProt Q12809)) of entry CCCOc1ccc(C(O)C(CN2CCOCC2)c2ccccc2)cc1.Cl (stereo not drawn)
**A:** 1.07

**Q:** Value wanted: hERG current change (%, negative = inhibition) at 10uM (human ether-à-go-go-related gene (hERG) potassium channel (human, UniProt Q12809)) of entry COc1ccc(C2CC(=O)C3=C(C2)Nc2ccccc2N(C(C)=O)C3c2ccco2)cc1 (stereo not drawn)
**A:** -35.8

**Q:** Value wanted: hERG current change (%, negative = inhibition) at 10uM (human ether-à-go-go-related gene (hERG) potassium channel (human, UniProt Q12809)) of entry CCCCOc1[nH]c2nc(-c3ccco3)n(Cc3ccco3)c(=N)c2c1C#N
**A:** -69.1

**Q:** Value wanted: hERG current change (%, negative = inhibition) at 10uM (human ether-à-go-go-related gene (hERG) potassium channel (human, UniProt Q12809)) of entry Cn1cc(C(=O)N2CCCC(Nc3ccc(F)cc3)C2)c2ccccc21 (stereo not drawn)
**A:** -21.1
